- Test system: HOP-62 NSCLC
- ASSAY_OVERVIEW: NCI-60 one-dose screen, 48 h (100 = growth as untreated, 0 = no growth, -100 = all killed)
- RUN_PARAMETERS: 10 µM
About 83,000 compounds went through this panel and 20% of them were active in at least one assay; those are over-represented in the sample as a whole.

| ITEM_SMILES | READOUT_UNITS | growth |
| --- | --- | --- |
| CC1=C2C(=C[C@@](C)(CO)[C@@H]2O)/C(=N\N)[C@](C)(O)C12CC2 | % | -27 |
| O=C(NO)c1ccc(CNC(=O)[C@H]2Cc3c([nH]c4ccccc34)[C@H](c3ccccc3)N2)cc1 | % | 18.7 |
| Cc1nc(Nc2nc(C)c3ccc(OCCN4CCOCC4)cc3n2)[nH]c(=O)c1C | % | -34.5 |
| Cc1ccn2c(C(=O)c3ccccc3)cc(-c3cc(-c4ccc(N(C)C)cc4)c(C#N)c(N)n3)c2c1 | % | 53.1 |
| N[C@@H](CSSC[C@H](N)C(=O)Nc1ccc(OCC2CCCC2)cc1)C(=O)Nc1ccc(OCC2CCCC2)cc1 | % | -90.7 |
| N#Cc1ccc(-c2nn(-c3ccc(C(=O)O)cc3)cc2CNc2ccc(Oc3ccccc3)cc2)cc1 | % | 37.4 |
| CN(C)c1ccc(/C=C/c2nc3ccccc3c(=O)n2CC(=O)Nc2ccc(Cl)cc2)cc1 | % | 25.4 |
| O=C(Nc1cc(Cl)cc(Cl)c1)Nc1cc(Cl)cc(Cl)c1 | % | -30.3 |
| O=C(CN1CCN(c2ncnc3c2cnn3-c2ccccc2)CC1)Nc1nncs1 | % | -52.7 |
